- Tested on: HCT-15 colon
- assay_notes: NCI tumour cell line growth inhibition, 384-well format; in the data active = GI50 below about 0.43 µM; inactive = the rest
# valid calls are active, inactive; nothing else

Look over these answered cases.
>>> label("Nc1nc(OCc2ccccc2)c2[nH]cnc2n1")
"inactive"
>>> label("CC(C)C[C@H](NC(=O)CNC(=O)c1cc(Cl)ccc1Cl)B1OC(=O)CC(CC(=O)O)(C(=O)O)O1 (some centres undefined)")
"active"

Hello, I am checking results. What call was entered for "C=CC(=O)Nc1cccc(Oc2nc(Nc3ccc(N4CCN(C)CC4)cc3)nc3ccsc23)c1" ?
inactive

Hello, I am checking results. What call was entered for "CN[C@@H](C)C(=O)N[C@H](C(=O)N1CCC[C@H]1C(=O)Nc1sc(-c2ncco2)nc1-c1ccccc1)C1CCCCC1" ?
inactive

###

Reported values of GI50 for individual entries
- Tested on: U251 glioblastoma
- assay_notes: NCI tumour cell line growth inhibition, 384-well format

What value of GI50 has been recorded for this entry: "C[C@@H]1CN(Cc2ccc(F)cc2)[C@@H](C)CN1C(=O)c1cc2c(C(=O)C(=O)N(C)C)cn(C)c2cc1Cl"
16.4 µM

What value of GI50 has been recorded for this entry: "Nc1nc(OCc2ccccc2)c2[nH]cnc2n1"
38.3 µM

What value of GI50 has been recorded for this entry: "C=CC(=O)Nc1cccc(Oc2nc(Nc3ccc(N4CCN(C)CC4)cc3)nc3ccsc23)c1"
1.65 µM

What value of GI50 has been recorded for this entry: O=C1CCC(N2Cc3cc(CNC(=O)C(F)(F)c4ccc(Cl)cc4)ccc3C2=O)C(=O)N1 (centres undefined)
> 100 µM
